FYI, the data here is from patent US8372967B2.

System: PTP1B mRNA
Assay: Dose response for human PTP1B in HuVEC cells, PPS 198 and PPS 3000 (Tables 86, 87)
Type: cell-based
Details: PPS 198, 1.11 nM
Strand notation (5' to 3'): a small letter for the sugar, then the base; units joined by * are phosphorothioate-linked, units joined directly phosphodiester-linked; [ ] holds rarer units or linkages, { } end groups; capitals alone tell only the bases. e = 2'-O-(2-methoxyethyl) (MOE); [5mC] = 5-methylcytosine; d = 2'-deoxy (DNA)
Items are presented alongside their recorded % Inhibition.
I only need the number, in %, no unit after it.

Here are 2 substances together with their reported answers.
399113 (eG*eT*dT*dA*dG*dG*d[5mC]*dA*dA*dA*dG*dG*eG*e[5mC]; antisense) [compound 399113] ... 0
399301 (GTGTGCACACAGCT; all C 5-methyl, all phosphorothioate, sugars by position not given here; further chemistry not fully specified) [compound 399301] ... 8

Now take the following substance into account.
## Task Any idea what % Inhibition was measured for 398120 (eG*eT*dT*d[5mC]*dA*dA*dG*d[5mC]*dG*dG*d[5mC]*d[5mC]*eT*eA) [compound 398120] ?
## Result 0

----------
Tested on: PCSK9 mRNA
Assay: Dose-dependent antisense inhibition of PCSK9 in Hep3B cells, EC50 (Table 76)
Assay type: cell-based, human
Conditions: 160 nM
Strand notation (5' to 3'): a small letter for the sugar, then the base; units joined by * are phosphorothioate-linked, units joined directly phosphodiester-linked; [ ] holds rarer units or linkages, { } end groups; capitals alone tell only the bases. e = 2'-O-(2-methoxyethyl) (MOE); [5mC] = 5-methylcytosine; d = 2'-deoxy (DNA)
Items are presented alongside their recorded % Inhibition.
I only need the number, in %, no unit after it.

Here are 3 substances together with their reported answers.
400327 (antisense eG*eT*d[5mC]*d[5mC]*d[5mC]*d[5mC]*dA*dA*dA*dG*dT*d[5mC]*e[5mC]*e[5mC]) [compound 400327] ... 55
400307 (antisense e[5mC]*eG*dG*d[5mC]*d[5mC]*dG*d[5mC]*dT*dG*dA*d[5mC]*d[5mC]*eA*e[5mC]) [compound 400307] ... 93
400309 (antisense e[5mC]*e[5mC]*d[5mC]*dG*dG*d[5mC]*d[5mC]*dG*d[5mC]*dT*dG*dA*e[5mC]*e[5mC]) [compound 400309] ... 78

## Task Any idea what % Inhibition was measured for 400352 (antisense e[5mC]*eA*d[5mC]*d[5mC]*d[5mC]*dT*d[5mC]*dA*d[5mC]*d[5mC]*d[5mC]*d[5mC]*e[5mC]*eA) [compound 400352] ?
## Result 64

## Task Any idea what % Inhibition was measured for 400353 (antisense eA*e[5mC]*dA*d[5mC]*d[5mC]*d[5mC]*dT*d[5mC]*dA*d[5mC]*d[5mC]*d[5mC]*e[5mC]*e[5mC]) [compound 400353] ?
## Result 48

## Task Any idea what % Inhibition was measured for 400308 (antisense e[5mC]*e[5mC]*dG*dG*d[5mC]*d[5mC]*dG*d[5mC]*dT*dG*dA*d[5mC]*e[5mC]*eA) [compound 400308] ?
## Result 86

## Task Any idea what % Inhibition was measured for 400331 (antisense eG*e[5mC]*d[5mC]*dA*d[5mC]*dG*dT*dG*dG*dG*d[5mC]*dA*eG*e[5mC]) [compound 400331] ?
## Result 82

## Task Any idea what % Inhibition was measured for 400330 (antisense e[5mC]*e[5mC]*dA*d[5mC]*dG*dT*dG*dG*dG*d[5mC]*dA*dG*e[5mC]*eA) [compound 400330] ?
## Result 71
